Quick reference for inhibition among some compounds
Biological target: Protein RecA (Mycobacterium tuberculosis (strain ATCC 25618 / H37Rv)) (UniProt P9WHJ3)
Sequence (P9WHJ3 whole entry, looked up): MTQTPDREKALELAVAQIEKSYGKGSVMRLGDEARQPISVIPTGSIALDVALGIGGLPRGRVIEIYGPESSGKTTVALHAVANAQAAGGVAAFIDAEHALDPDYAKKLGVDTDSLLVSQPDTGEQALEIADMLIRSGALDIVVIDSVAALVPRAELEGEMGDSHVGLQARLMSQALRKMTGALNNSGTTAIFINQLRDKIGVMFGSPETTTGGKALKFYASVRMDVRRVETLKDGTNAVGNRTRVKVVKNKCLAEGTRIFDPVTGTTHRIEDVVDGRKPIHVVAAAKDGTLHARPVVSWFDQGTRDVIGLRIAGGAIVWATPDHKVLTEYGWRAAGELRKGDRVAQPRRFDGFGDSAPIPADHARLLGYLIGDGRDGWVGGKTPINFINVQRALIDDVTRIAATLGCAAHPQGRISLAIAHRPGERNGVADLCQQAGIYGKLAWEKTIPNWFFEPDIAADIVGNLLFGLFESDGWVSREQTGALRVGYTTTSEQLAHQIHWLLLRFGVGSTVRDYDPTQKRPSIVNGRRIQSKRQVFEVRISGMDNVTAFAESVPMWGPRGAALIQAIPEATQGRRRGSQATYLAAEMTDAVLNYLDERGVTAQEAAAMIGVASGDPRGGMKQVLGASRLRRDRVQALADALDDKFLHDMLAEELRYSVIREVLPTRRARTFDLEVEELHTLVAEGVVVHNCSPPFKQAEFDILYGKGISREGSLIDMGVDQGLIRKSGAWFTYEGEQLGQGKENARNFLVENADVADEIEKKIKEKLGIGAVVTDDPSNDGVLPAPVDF
Experiment: Mtb RecA intein splicing inhibitors, primary screen, biochemical, fluorescence, HTS (AID 2221);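 note: 0% = vehicle wells and 100% = reference inhibitor control wells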
Details: cell-free RecA intein splicing, active compounds read high, concentration not given here
Hit rate of the full screen: of about 290,000 compounds, about 2,200 (0.76%) were called active. For the sample, actives were picked, then their nearest neighbours and some compounds at random.
assay_endpoint: inhibition (%)

[[record]]
compound = "CCCCC(O)(CCCC)C(=O)NN(C(=O)CCl)c1ccccc1"
assay_endpoint = "inhibition"
reported_result = 42.8

[[record]]
compound = "CC(=O)O[C@]1(C(C)=O)CC[C@H]2[C@@H]3C=C(C)C4=CC(=O)CC[C@]4(C)[C@H]3CC[C@@]21C"
assay_endpoint = "inhibition"
reported_result = 11

[[record]]
compound = "O=S(=O)(c1ccc(-c2ccno2)s1)N1CCCCC1"
assay_endpoint = "inhibition"
reported_result = 0.0995

[[record]]
compound = "CCOC(=O)C(C)n1cnc2c(nnn2-c2ccc(F)cc2)c1=O (stereo not given)"
assay_endpoint = "inhibition"
reported_result = -0.542

[[record]]
compound = "CC(=O)Nc1cccc(NC(=O)CSc2nccn2Cc2ccc(F)cc2)c1"
assay_endpoint = "inhibition"
reported_result = -1.4

[[record]]
compound = "Cc1ccc(NC(=O)CSc2nnc(CNC(=O)c3ccccc3F)o2)cc1"
assay_endpoint = "inhibition"
reported_result = -1.52

[[record]]
compound = "CCCC(O)(CCC)C(=O)NN(C(=O)CCl)c1cccc(C)c1"
assay_endpoint = "inhibition"
reported_result = 18.1

[[record]]
compound = "Cc1ccc(-c2nc(SCC(=O)Nc3ccccc3OC(F)F)c3c(C)c(C(=O)O)sc3n2)cc1"
assay_endpoint = "inhibition"
reported_result = 2.99

[[record]]
compound = "CCC(C)[C@H](NC(=O)N1CCn2c1nc1ccccc12)C(=O)NCc1ccc(OC)cc1 (stereo not given in full)"
assay_endpoint = "inhibition"
reported_result = 2.07

[[record]]
compound = "COC(=O)N(NC(=O)C(O)(C(C)C)C(C)C)c1ccccc1"
assay_endpoint = "inhibition"
reported_result = -3.28


###

Molecular target: Protein RecA (Mycobacterium tuberculosis (strain ATCC 25618 / H37Rv)) (UniProt P9WHJ3)
Test: Mtb RecA intein splicing inhibitors, primary screen, biochemical, fluorescence, HTS (AID 2221);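 note: 0% = vehicle wells and 100% = reference inhibitor control wells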
Conditions: cell-free RecA intein splicing, active compounds read high, concentration not given here
The whole screen tested about 290,000 compounds, of which about 2,200 (0.76%) were called active. The list comes from a sample in which actives are over-represented; it also holds close analogues and randomly drawn compounds.
assay_endpoint: inhibition

[[record]]
compound = "CCN(CC)c1ccc([N+](=O)[O-])c2cccnc12"
assay_endpoint = "inhibition"
reported_result = "14.5% (inactive)"

[[record]]
compound = "COC(=O)c1sc(-c2ccc(C(C)(C)C)cc2)cc1NC(=O)/C=C/C(=O)O"
assay_endpoint = "inhibition"
reported_result = "88.1% (active)"

[[record]]
compound = "Cc1ccc(S(=O)(=O)NC2(C(F)(F)F)NC(=O)N(CCc3ccccc3)C2=O)cc1 (configuration not stated)"
assay_endpoint = "inhibition"
reported_result = "-2.6% (inactive)"

[[record]]
compound = "CCc1ccccc1N(CC(=O)NCC1CCCO1)C(=O)CCC(=O)Nc1nccs1 (configuration not stated)"
assay_endpoint = "inhibition"
reported_result = "-1.77% (inactive)"

[[record]]
compound = "CCN1CCN(c2ccc(NC(=O)c3cnccn3)cc2)CC1"
assay_endpoint = "inhibition"
reported_result = "-0.413% (inactive)"

[[record]]
compound = "Cc1[nH]c(C)c(S(=O)(=O)N2CCN(c3cccc(C(F)(F)F)c3)CC2)c1C(=O)N1CCCC1"
assay_endpoint = "inhibition"
reported_result = "0.869% (inactive)"

[[record]]
compound = "COc1ccccc1CN1CCCC(N2CCN(c3ccc(F)cc3)CC2)C1 (configuration not stated)"
assay_endpoint = "inhibition"
reported_result = "1.51% (inactive)"

[[record]]
compound = "O=C(O)/C=C/C(=O)Nc1ccc(F)cc1F"
assay_endpoint = "inhibition"
reported_result = "0.519% (inactive)"

[[record]]
compound = "O=C(NCCCn1ccnc1)c1cc2c(s1)CCCC2"
assay_endpoint = "inhibition"
reported_result = "1.03% (inactive)"

[[record]]
compound = "Cc1nn(C(C)(C)C)c(OC(=O)CC(C)C)c1S(=O)(=O)c1ccccc1"
assay_endpoint = "inhibition"
reported_result = "8.28% (inactive)"

[[record]]
compound = "CN(c1ccccc1)c1ccc([N+](=O)[O-])c2nonc12"
assay_endpoint = "inhibition"
reported_result = "63.5% (active)"

[[record]]
compound = "CCOC(=O)c1cc(NC(=O)c2ccc(Cl)cc2)c(=O)oc1-c1ccccc1"
assay_endpoint = "inhibition"
reported_result = "-0.694% (inactive)"

[[record]]
compound = "CC12CCC(C(=O)N(c3cccc(Cl)c3)C1=O)C2(C)C (configuration not stated)"
assay_endpoint = "inhibition"
reported_result = "2.02% (inactive)"

[[record]]
compound = "CCOC(=O)N1CCN(C(c2cccnc2)c2ccc3cccnc3c2O)CC1 (configuration not stated)"
assay_endpoint = "inhibition"
reported_result = "9.76% (inactive)"

[[record]]
compound = "O=C(CN1CCN(S(=O)(=O)c2ccc(Br)cc2)CC1)Nc1ccccc1C(=O)c1ccccc1"
assay_endpoint = "inhibition"
reported_result = "-0.838% (inactive)"

[[record]]
compound = "CC(=O)N1CCN(C(=O)C2(NC(=O)Nc3ccc(C)cc3)CCCCC2)CC1"
assay_endpoint = "inhibition"
reported_result = "-0.697% (inactive)"

[[record]]
compound = "COc1ccccc1OCCCCCCN1CCN(C)CC1"
assay_endpoint = "inhibition"
reported_result = "-1.55% (inactive)"

[[record]]
compound = "CCN1CCN(C(c2cccnc2)c2cc(Cl)c3cccnc3c2O)CC1 (configuration not stated)"
assay_endpoint = "inhibition"
reported_result = "70% (active)"

[[record]]
compound = "CCC(c1nnnn1Cc1ccccc1)N(Cc1cc2cc(OC)ccc2[nH]c1=O)CC1CCCO1 (configuration not stated)"
assay_endpoint = "inhibition"
reported_result = "-10.9% (inactive)"

[[record]]
compound = "CCC(c1nnnn1Cc1ccco1)N(Cc1cc2cc(OC)ccc2[nH]c1=O)C1CCCCC1 (configuration not stated)"
assay_endpoint = "inhibition"
reported_result = "30.6% (active)"

[[record]]
compound = "O=C(Nc1ccc(Cl)c(Cl)c1)c1ccccc1NC(=O)C1CC=CCC1C(=O)O (configuration not stated)"
assay_endpoint = "inhibition"
reported_result = "0.473% (inactive)"

[[record]]
compound = "COc1ccccc1NC(=O)/C=C/C(=O)O"
assay_endpoint = "inhibition"
reported_result = "-1.49% (inactive)"


###

Molecular target: Protein RecA (Mycobacterium tuberculosis (strain ATCC 25618 / H37Rv)) (UniProt P9WHJ3)
Assay: Mtb RecA intein splicing inhibitors, primary screen, biochemical, fluorescence, HTS (AID 2221);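 note: 0% = vehicle wells and 100% = reference inhibitor control wells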
Settings: cell-free RecA intein splicing, active compounds read high, concentration not given here
Hit rate of the full screen: of about 290,000 compounds, about 2,200 (0.76%) were called active. The sample holds actives, similar compounds and a random draw of the others, so the mix is not that of the screen.
Quick reference for inhibition among some molecules
assay_endpoint: inhibition (%)

[[record]]
molecule = "COc1ccc(C(=O)NNC(=S)NC(=O)c2ccccc2)cc1"
assay_endpoint = "inhibition"
reported_result = 7.5

[[record]]
molecule = "Cc1cc(C=O)c(C)n1-c1ccc(NC2CCCCC2)c([N+](=O)[O-])c1"
assay_endpoint = "inhibition"
reported_result = 15.3

[[record]]
molecule = "Cc1cc(=O)n2nc(N3CCC(C(=O)Nc4c(F)c(F)c(F)c(F)c4F)CC3)sc2n1"
assay_endpoint = "inhibition"
reported_result = 0.056

[[record]]
molecule = "O=C(OCC(=O)N(CCc1ccccc1)Cc1ccccc1)c1ccccc1[N+](=O)[O-]"
assay_endpoint = "inhibition"
reported_result = 18.8

[[record]]
molecule = "CC(C)Oc1ccc(CCC(=O)NNC(=S)NCc2ccccc2)cc1"
assay_endpoint = "inhibition"
reported_result = 0.193

[[record]]
molecule = "CC/C(=N\\NC(=O)c1c(C)nc2ccccn12)c1ccc(Cl)cc1"
assay_endpoint = "inhibition"
reported_result = -3.74

[[record]]
molecule = "COc1ccc(C(=O)NC(=S)NNC(=O)CCc2ccccc2)cc1"
assay_endpoint = "inhibition"
reported_result = 34.5

[[record]]
molecule = "CC(CCn1cccn1)NC(=O)CCc1nnc(CCc2ccccc2)o1 (stereo unspecified)"
assay_endpoint = "inhibition"
reported_result = 36.9

[[record]]
molecule = "COc1ccc(NC(=O)c2cnc(NS(=O)(=O)c3ccccc3)nc2)cc1"
assay_endpoint = "inhibition"
reported_result = 0.334

[[record]]
molecule = "CC(=O)c1cccc(NC(=O)C2COc3ccccc3O2)c1 (stereo unspecified)"
assay_endpoint = "inhibition"
reported_result = 0.944

[[record]]
molecule = "CN(C)c1ccc(C=C2C(=O)OC3(CCCC3)OC2=O)cc1"
assay_endpoint = "inhibition"
reported_result = -3.67

